Data origin, for the record: paper PMC11942486

MEASUREMENT_TARGET: rat TRPA1 (Rattus norvegicus)
Sequence (Q6RI86 whole entry): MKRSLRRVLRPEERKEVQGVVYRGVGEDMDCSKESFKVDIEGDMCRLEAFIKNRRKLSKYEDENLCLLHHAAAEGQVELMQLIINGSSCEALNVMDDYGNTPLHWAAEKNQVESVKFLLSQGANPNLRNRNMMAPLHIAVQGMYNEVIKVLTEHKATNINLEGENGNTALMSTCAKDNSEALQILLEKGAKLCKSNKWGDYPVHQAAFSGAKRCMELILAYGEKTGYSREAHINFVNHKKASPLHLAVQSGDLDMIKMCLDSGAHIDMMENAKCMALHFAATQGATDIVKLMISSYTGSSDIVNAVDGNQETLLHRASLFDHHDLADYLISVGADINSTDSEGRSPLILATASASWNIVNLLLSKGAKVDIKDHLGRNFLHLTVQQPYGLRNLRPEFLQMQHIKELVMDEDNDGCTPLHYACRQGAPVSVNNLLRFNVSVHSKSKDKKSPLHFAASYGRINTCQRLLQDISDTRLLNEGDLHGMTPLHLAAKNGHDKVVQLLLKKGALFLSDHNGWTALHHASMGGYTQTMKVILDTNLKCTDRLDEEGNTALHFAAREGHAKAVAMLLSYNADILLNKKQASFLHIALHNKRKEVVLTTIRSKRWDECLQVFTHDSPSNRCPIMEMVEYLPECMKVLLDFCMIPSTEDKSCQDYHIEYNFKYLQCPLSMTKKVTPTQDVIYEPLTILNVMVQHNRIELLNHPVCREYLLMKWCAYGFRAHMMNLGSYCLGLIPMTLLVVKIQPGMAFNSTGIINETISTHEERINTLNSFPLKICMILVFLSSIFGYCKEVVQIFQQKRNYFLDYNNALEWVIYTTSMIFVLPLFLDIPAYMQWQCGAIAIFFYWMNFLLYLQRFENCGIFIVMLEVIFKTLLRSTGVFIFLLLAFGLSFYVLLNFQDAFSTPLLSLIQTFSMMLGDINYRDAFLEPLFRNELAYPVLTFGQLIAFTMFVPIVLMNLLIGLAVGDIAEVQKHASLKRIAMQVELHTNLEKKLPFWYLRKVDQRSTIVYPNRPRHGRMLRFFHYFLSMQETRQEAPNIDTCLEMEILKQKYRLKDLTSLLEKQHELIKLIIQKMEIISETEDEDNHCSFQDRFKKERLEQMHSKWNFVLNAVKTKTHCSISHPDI
ASSAY_METHOD_TEXT: Thermo-TRP assay: [Ca2+]i elevation (Fluo-4) in HEK-293 cells transfected with TRPA1
MEASUREMENT_PARAMETERS: half-maximal increase in [Ca2+]i; read-out: TRPA1 Potency EC50
The following compounds are shown together with reported pEC50 values.
Notebook: values listed as pEC50 are -log10 of the concentration (mol/L).

Guide cases for pEC50, answers given:
C=C(C)[C@@H]1CCC(C)=C[C@H]1C1=C(O)C(=O)C(C(C)(C)CCCCCC)=CC1=O
5.28
CCCCCCC(C)(C)C1=CC2=C(C(=O)C1=O)[C@@H]1CC(C)=CC[C@H]1C(C)(C)O2
5.36
CCCCCCC(C)(C)C1=CC(=O)C(C/C=C(\C)CCC=C(C)C)=C(O)C1=O
5.96

Kindly consider the entry below.
// query What does the record list as pEC50 for CCCCCCC(C)(C)C1=CC(=O)C2=C(OC(C)(CCC=C(C)C)C=C2)C1=O (stereo not shown) ?
// result 6.72
